Counter-ions that a name gives are not always drawn.
The entries below come with measured melting point values attached.
Lab book: enter the figure in °C, no units written.

Study these solved cases before continuing.
Clc1cccc(OCC2C3CCC(CC2c2cccs2)N3)c1Cl (stereo not shown) (as salt: fumaric acid salt) [1st compound of method E] = 201.2
c1csc(C2CC3CCC(N3)C2COc2cccc3ccccc23)c1 (stereo not shown) (as salt: fumaric acid salt) [2nd compound of method E] = 199.1

Ask: Which melting point reading was recorded for the molecule CN1C2CCC1[C@H](COc1cccc3ccccc13)[C@@H](c1cccs1)C2.O=C(O)/C=C/C(=O)O (stereo partly shown) [2nd compound of method D] ?
Reply: 203.1

====

The entries below come with measured IC50 values attached.
Molecular target: NA-uptake (reuptake of noradrenaline in synaptosomes) (Rattus norvegicus, UniProt Q9WTR4)
Construct: In synaptosomes as described in WO 97/16451
Sequence (Q9WTR4 1-597): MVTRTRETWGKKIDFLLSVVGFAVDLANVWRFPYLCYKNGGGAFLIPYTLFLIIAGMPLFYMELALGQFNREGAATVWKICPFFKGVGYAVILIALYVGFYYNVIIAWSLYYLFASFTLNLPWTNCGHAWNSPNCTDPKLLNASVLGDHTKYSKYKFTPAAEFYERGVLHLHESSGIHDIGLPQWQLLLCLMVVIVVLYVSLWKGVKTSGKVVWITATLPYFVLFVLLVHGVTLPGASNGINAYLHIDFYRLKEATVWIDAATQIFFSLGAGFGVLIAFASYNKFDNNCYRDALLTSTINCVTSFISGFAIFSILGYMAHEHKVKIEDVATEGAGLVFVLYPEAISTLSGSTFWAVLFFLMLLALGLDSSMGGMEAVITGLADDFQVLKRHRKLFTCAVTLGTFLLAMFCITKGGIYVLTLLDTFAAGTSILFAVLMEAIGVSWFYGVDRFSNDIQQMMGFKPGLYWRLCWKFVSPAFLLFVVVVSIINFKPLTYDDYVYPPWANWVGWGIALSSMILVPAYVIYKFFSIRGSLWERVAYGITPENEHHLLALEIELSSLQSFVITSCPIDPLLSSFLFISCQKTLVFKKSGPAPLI
Assay: Inhibition of noradrenaline (NA) reuptake in synaptosomes
The reply must contain the numeric value and, after it, the unit.

Study these solved cases before continuing.
CN1C2CCC1[C@H](COc1cccc3ccccc13)[C@@H](c1cccs1)C2.O=C(O)/C=C/C(=O)O (stereo partly drawn) [2nd compound of method D] = 3.6 nM
CN1C2CCC1[C@H](COc1cccc(Cl)c1Cl)[C@@H](c1cccs1)C2 (stereo partly drawn) [1st compound of method D] = 1.9 nM
CN1C2CCC1[C@H](COc1cccc(Cl)c1Cl)[C@@H](c1ccco1)C2.O=C(O)/C=C/C(=O)O (stereo partly drawn) [5th compound of method D] = 0.9 nM
CN1C2CCC1[C@H](COc1cccc3ccccc13)[C@@H](c1ccco1)C2 (stereo partly drawn) [6th compound of method D] = 3 nM
c1csc(C2CC3CCC(N3)C2COc2cccc3ccccc23)c1 (stereo not drawn) [2nd compound of method E] = 1.6 nM

Attention now shifts to the item below.
Ask: Please tell me: IC50 of Clc1cccc(OCC2C3CCC(CC2c2cccs2)N3)c1Cl (stereo not drawn) [1st compound of method E] , system NA-uptake (reuptake of noradrenaline in synaptosomes) (Rattus norvegicus, UniProt Q9WTR4)?
Reply: 1.8 nM
